B1: Pistol ribozyme (parent)
chain: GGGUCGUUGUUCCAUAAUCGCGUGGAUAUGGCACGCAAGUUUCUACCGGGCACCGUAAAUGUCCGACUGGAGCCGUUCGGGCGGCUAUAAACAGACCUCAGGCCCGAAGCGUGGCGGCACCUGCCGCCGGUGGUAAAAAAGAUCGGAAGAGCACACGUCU

# Variants of: B1
# ASSAY_OVERVIEW: aptazyme ON/OFF ratio, guanine; higher = stronger switching; co-transcriptional cleavage with and without guanine
PROPERTY_MEASURED: aptazyme ON/OFF ratio
# print the numeric value only

- MUTATIONS: "U7C U8G U11A C12G C13A"
  VALUE_OBSERVED: 1.11
- MUTATIONS: "U8C G9U U10A U11A C12U C13G"
  VALUE_OBSERVED: 1.2
- MUTATIONS: "G9C U10A U11G C12G"
  VALUE_OBSERVED: 1.23
- MUTATIONS: "U7A U8A G9U U10C U11C C13G"
  VALUE_OBSERVED: 1.04
- MUTATIONS: "U8C G9A U10G U11A C12G C13G"
  VALUE_OBSERVED: 1.35
- MUTATIONS: "U8C G9U C12G C13U"
  VALUE_OBSERVED: 1.25

Below: the item to evaluate.
IN: Could you share which aptazyme ON/OFF ratio value was measured for U7G U8G U10A U11A C12A C13G ?
OUT: 1.22
